Experiment: Plasma clearance in rhesus monkey at 0.5 mg/kg, iv or 2 mg/kg, po
Type: ADME, organism-based, Macaca mulatta
Result Type: clearance (mL/min/kg)
Give the number; mL/min/kg is assumed, so skip it.

{"columns": ["Structure Smiles String", "clearance / mL/min/kg"],
 "data": [
  ["O=C(c1ccc(C[C@@H]2CC[C@H]([C@H](O)c3ccccc3)N2)cc1)N1CCN(Cc2nnn(CC(F)(F)F)n2)CC1", 19],
  ["CCc1nnc([C@H]2[C@@H]3CN(C(=O)c4ccc(C[C@@H]5CC[C@H]([C@H](O)c6ccccc6)N5)cc4)C[C@@H]32)o1", 30]
]}

Here's the next entry for you.
### Prompt Query: clearance; subject: O=C(c1ccc(C[C@@H]2CC[C@H]([C@H](O)c3ccccc3)N2)cc1)N1CCN(Cc2ccccn2)CC1
### Response 18
